# Tested on: SK-OV-3 ovarian
# methodSummary: NCI tumour cell line growth inhibition, 48 h
measure: TGI

1) CN1CCC(CNc2cc(C3(C(=O)Nc4cc(C(=O)Nc5ccc(Cl)c(C(F)(F)F)c5)ccc4F)CC3)ncn2)CC1 : 4.58 µM
2) N=C1C(=N)c2ccccc2-c2ccccc21.[Cl-].[Ru+2].c1ccc(-c2ccccn2)nc1.c1ccc(-c2ccccn2)nc1 : > 100 µM
3) c1ccc(-c2nc(-c3ccccn3)nc(-c3ccccn3)n2)nc1 : > 100 µM
4) Cc1cc(C)nc(NS(=O)(=O)c2ccc(NC(=O)c3c4ccccc4nc4ccccc34)cc2)n1 : > 100 µM
5) N#C[Se]Cc1cc(-c2ccccc2)n(-c2ccc(S(N)(=O)=O)cc2)n1 : 5.26 µM
6) COc1cc(Cl)cc(=O)c(O)c1OC : > 100 µM
7) CCC1(O)C(=O)OCc2c1cc1n(c2=O)Cc2cc3ccccc3nc2-1 (stereo not given) : 7.11 µM
8) O=C1C=CC(=O)c2c1ccc1c3ccccc3n(Cc3ccc([N+](=O)[O-])cc3)c21 : > 100 µM
9) O=C(O)CC(Cc1ccccc1Cl)C(=O)O (stereo not given) : > 100 µM
10) C[N+](C)(C)CCC(=O)CC[N+](C)(C)C : > 100 µM

This collection of values is drawn from PubChem BioAssay (NCI).
